# Study Target: LipA (Sodiomyces alcalophilus, UniProt P0CT91)
# Construct: Transient in Nicotiana benthamiana; vector adds Pr1b signal peptide, Xpress tag, C-myc tag, KDEL (tags kept); N-glycosylated, about 56 kDa on SDS-PAGE
# Sequence (P0CT91 23-416): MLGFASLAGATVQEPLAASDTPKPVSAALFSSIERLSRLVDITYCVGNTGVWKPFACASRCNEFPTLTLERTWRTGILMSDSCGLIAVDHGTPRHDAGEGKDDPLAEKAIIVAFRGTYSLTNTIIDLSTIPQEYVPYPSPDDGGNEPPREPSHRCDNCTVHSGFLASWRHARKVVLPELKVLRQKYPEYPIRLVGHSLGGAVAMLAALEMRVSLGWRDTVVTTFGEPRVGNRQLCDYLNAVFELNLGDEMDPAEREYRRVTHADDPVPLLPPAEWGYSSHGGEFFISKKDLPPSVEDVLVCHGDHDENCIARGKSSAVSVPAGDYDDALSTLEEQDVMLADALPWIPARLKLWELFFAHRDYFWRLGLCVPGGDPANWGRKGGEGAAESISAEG
# Assay Comment: p-nitrophenol release, […] nm
# Format: biochemical
# Condition Details: 100 mM phosphate buffer pH 8.0, 40°C
Measured Attribute: Km

INPUT: Look up and state reported Km for CCCCCCCC(=O)Oc1ccc([N+](=O)[O-])cc1 [pNP caprylate (C8)]
OUTPUT: 100 µM

INPUT: Read off the recorded Km for CCCCCCCCCCCCCC(=O)Oc1ccc([N+](=O)[O-])cc1 [pNP myristate (C14)]
OUTPUT: 70 µM

INPUT: Provide Km value for the following compound: CCCCCCCCCCCCCCCC(=O)Oc1ccc([N+](=O)[O-])cc1 [pNP palmitate (C16)]
OUTPUT: 100 µM

INPUT: Please give the documented Km of CCCC(=O)Oc1ccc([N+](=O)[O-])cc1 [pNP butyrate (C4)]
OUTPUT: 160 µM

INPUT: Report Km, nothing else, for this compound: CC(=O)Oc1ccc([N+](=O)[O-])cc1 [pNP acetate (C2)]
OUTPUT: 150 µM

The values you see were collected from paper PMC3750315.
